Parameter: remaining activity at 2500 µM. Scope: all listed entries.
target: E. coli DdlB enzyme (D-alanine:D-alanine ligase) (Escherichia coli); construct: made in house; host or cells: E. coli; test: biochemical; details: read-out: DdlB RA
Just the number please, in %, no unit attached.

Guide cases for remaining activity at 2500 µM, answers given:
chemicalString	systemUnderTest	remaining activity at 2500 µM, %
[C-]#[N+]CS(=O)(=O)c1ccc(C)cc1	E. coli DdlB enzyme (D-alanine:D-alanine ligase) (Escherichia coli)	100
Nc1cccc(C(F)(F)F)n1	E. coli DdlB enzyme (D-alanine:D-alanine ligase) (Escherichia coli)	100
N[C@H](c1ccccc1)[C@@H](N)c1ccccc1	E. coli DdlB enzyme (D-alanine:D-alanine ligase) (Escherichia coli)	100
N#Cc1nc[nH]c1C#N	E. coli DdlB enzyme (D-alanine:D-alanine ligase) (Escherichia coli)	100
Nc1ncccc1C(=O)O	E. coli DdlB enzyme (D-alanine:D-alanine ligase) (Escherichia coli)	98

Now for a further molecule.
Using the record for O=C1CC[C@H](C(=O)O)O1 , state its measured remaining activity at 2500 µM.
100

----------
target: E. coli DdlB enzyme (D-alanine:D-alanine ligase) (Escherichia coli); construct: made in house; host or cells: E. coli; experiment: biochemical; conditions: fragment library screening; tested concentration 1.8 mM; read-out: DdlB RA
Parameter: remaining activity at 1800 µM. Scope: all listed entries.
Just the number please, in %, no unit attached.

Guide cases for remaining activity at 1800 µM, answers given:
chemicalString	remaining activity at 1800 µM [%]
Cc1cccc(C)c1NC(=O)C[C@H](NCCO)C(=O)O	102
C=CCn1c(N2CCC(C(=O)O)CC2)nc2ccccc21	86
O=C(O)C1CCN(c2nc3cc(Cl)ccc3o2)CC1	93
Cc1onc(C(=O)O)c1COc1ccc([N+](=O)[O-])cc1	97
O=C(O)[C@@H]1[C@H]2CC[C@H](CC2)[C@@H]1C(=O)NCc1ccco1	92
O=C(O)CCCC(=O)N1CCN(c2ccccc2)CC1	99

Tell me remaining activity at 1800 µM of O=C(O)CCCc1nc2ccccc2c(=O)n1C1CC1 when tested on E. coli DdlB enzyme (D-alanine:D-alanine ligase) (Escherichia coli).
92

Tell me remaining activity at 1800 µM of O=C(O)C[C@H]1NC(=O)N(CCc2cccc(F)c2)C1=O when tested on E. coli DdlB enzyme (D-alanine:D-alanine ligase) (Escherichia coli).
93

Tell me remaining activity at 1800 µM of O=C(O)COCC(=O)Nc1ccc(-c2nn[nH]n2)cc1 when tested on E. coli DdlB enzyme (D-alanine:D-alanine ligase) (Escherichia coli).
93

----------
Parameter: remaining activity at 1800 µM. Scope: all listed entries.
molecular target: E. coli DdlB enzyme (D-alanine:D-alanine ligase) (Escherichia coli, UniProt P07862); construct: made in house; host or cells: E. coli; experiment: biochemical; details: tested concentration 1.8 mM; read-out: DdlB RA
Just the number please, in %, no unit attached.

Guide cases for remaining activity at 1800 µM, answers given:
molecule	unitInfo	remaining activity at 1800 µM
O=C1CSC(c2ccccc2)N1CCc1ccccc1 (centres unmarked)	%	134
O=c1[nH]c2ccc(S(=O)(=O)N3CCCCC3)cc2o1	%	100
NS(=O)(=O)c1ccc(CNC(=O)C2CCCC2)cc1	%	93
OC12CC3CC(C1)CC(NCc1cccnc1)(C3)C2	%	92

Using the record for Cc1cc2nc(COC(=O)c3ccccc3)cc(=O)n2o1 , state its measured remaining activity at 1800 µM.
-1

----------
target: E. coli DdlB enzyme (D-alanine:D-alanine ligase) (Escherichia coli, UniProt P07862); construct: made in house; host or cells: E. coli; experiment: biochemical; settings: residual activity of DdlB; fragment library screening; tested concentration 2.5 mM; read-out: DdlB RA
measurementType: remaining activity at 2500 µM (%)
Just the number please, in %, no unit attached.

Guide cases for remaining activity at 2500 µM, answers given:
compound	systemUnderTest	unitInfo	remaining activity at 2500 µM
CC1=NC(C)(C)CO1	E. coli DdlB enzyme (D-alanine:D-alanine ligase) (Escherichia coli, UniProt P07862)	%	91
COc1ccncc1	E. coli DdlB enzyme (D-alanine:D-alanine ligase) (Escherichia coli, UniProt P07862)	%	99
O=C(O)c1ccco1	E. coli DdlB enzyme (D-alanine:D-alanine ligase) (Escherichia coli, UniProt P07862)	%	95
O=C(O)Cc1ccsc1	E. coli DdlB enzyme (D-alanine:D-alanine ligase) (Escherichia coli, UniProt P07862)	%	100
CCOc1ccc(O)cc1	E. coli DdlB enzyme (D-alanine:D-alanine ligase) (Escherichia coli, UniProt P07862)	%	100
C/C=C/c1ccc(OC)cc1	E. coli DdlB enzyme (D-alanine:D-alanine ligase) (Escherichia coli, UniProt P07862)	%	100
Nc1cc[nH]c(=O)n1	E. coli DdlB enzyme (D-alanine:D-alanine ligase) (Escherichia coli, UniProt P07862)	%	100
Cc1ccnc(N)c1	E. coli DdlB enzyme (D-alanine:D-alanine ligase) (Escherichia coli, UniProt P07862)	%	100

Tell me remaining activity at 2500 µM of Oc1cccc(C(F)(F)F)c1 when tested on E. coli DdlB enzyme (D-alanine:D-alanine ligase) (Escherichia coli, UniProt P07862).
91

----------
target: E. coli DdlB enzyme (D-alanine:D-alanine ligase) (Escherichia coli, UniProt P07862); construct: made in house; host or cells: E. coli; experiment: biochemical; details: tested concentration 2.6 mM; read-out: DdlB RA
Binarize remaining activity at 2600 µM at 90%; below is YES, at or above is NO.

molecule	className
O=C(O)c1n[nH]cc1Br	YES
Cc1cnc(C)n1CCNC(=O)C1CC=CC1	NO
CCc1c(C)nn(-c2nnn[nH]2)c1O	YES

Decide: remaining activity at 2600 µM of O=C1CC(C(=O)O)c2ccccc2N1 (stereo not shown) strictly below 90%?
YES

Decide: remaining activity at 2600 µM of O=C(O)CCc1cn2cccnc2n1 strictly below 90%?
NO

Decide: remaining activity at 2600 µM of O=C(O)c1nc2ccccc2nc1O strictly below 90%?
NO

Decide: remaining activity at 2600 µM of CC(C)c1nnc(-c2cnccn2)o1 strictly below 90%?
NO

Decide: remaining activity at 2600 µM of CCCc1nnc(-c2ccncc2)o1 strictly below 90%?
NO

Decide: remaining activity at 2600 µM of Cc1ccc(C2(O)CC(C)N(C)CC2C)cc1 (stereo not shown) strictly below 90%?
NO

Decide: remaining activity at 2600 µM of Cc1cc(Nc2c(O)c(=O)c2=O)no1 strictly below 90%?
NO

Decide: remaining activity at 2600 µM of Oc1nonc1NCc1ccccc1 strictly below 90%?
NO

Decide: remaining activity at 2600 µM of CCOc1ccc2c(c1)cc(C(=O)NC)n2C strictly below 90%?
NO

Decide: remaining activity at 2600 µM of COc1cc(C#N)cc2[nH]c(=O)oc12 strictly below 90%?
NO

Decide: remaining activity at 2600 µM of Cc1ccc2cc(CCC(=O)O)c(O)nc2c1 strictly below 90%?
NO

Decide: remaining activity at 2600 µM of Cc1ccc(Cn2ccnc2C(N)=O)cc1 strictly below 90%?
NO

Decide: remaining activity at 2600 µM of Cc1nc2c(C)cccn2c1C(=O)O strictly below 90%?
NO

Decide: remaining activity at 2600 µM of Nc1ccc2c(c1)[C@@H](O)C[C@@H](C(F)(F)F)O2 strictly below 90%?
NO

----------
assay: Solubility at tested concentrations (fragment library screening); format: physicochemical; details: tested concentration 2.0 mM
measurementType: Solubility at tested concentrations

Guide cases for Solubility at tested concentrations, answers given:
chemicalString	Solubility at tested concentrations
O=C(O)c1ccc(N2Cc3ccccc3C2)cc1O	not soluble
Oc1c(Cl)cc(Cl)c2ccc(Cl)nc12	not soluble
Cc1ccc(-c2csc(NC(=O)CO)n2)cc1	not soluble
COc1ccc(-c2ccc(C(=O)O)c(=O)[nH]2)cc1	not soluble
O=C(Cc1ccccc1[N+](=O)[O-])Nc1nnc[nH]1	not soluble

Using the record for COCCNc1c(-c2ccc(C)cc2)c(=O)c1=O , state its measured Solubility at tested concentrations.
not soluble

----------
target: UniProt:P07862
measurementType: Kd (mM)
Just the number please, in mM, no unit attached.

Tell me Kd of Cc1cccc(-c2ccnc3c(C(=O)O)cnn23)c1 when tested on UniProt:P07862.
3.2

----------
Molecular target: E. coli DdlB enzyme (D-alanine:D-alanine ligase) (Escherichia coli)
Construct: made in house; host or cells: E. coli
Experiment: biochemical
Details: residual activity of DdlB; fragment library screening; tested concentration 2.5 mM; read-out: DdlB RA
Description: The fragment library was assayed in a DdlB inhibition assay, where fragments were tested for their ability to inhibit the D-Ala-adding activity of DdlB ligase. The orthophosphate formed during the enzymatic reaction was measured spectrophotometrically using malachite green reagent. A recombinant E. coli DdlB enzyme (D-alanine:D-alanine ligase) was expressed in E. coli[11]. […] The final DMSO concentration was 5%. […] All experiments were performed in duplicates. […]
measurementType: remaining activity at 2500 µM (%)
Just the number please, in %, no unit attached.

Guide cases for remaining activity at 2500 µM, answers given:
chemicalString	unitInfo	numericResult
Cc1ncc(CO)c(CO)c1O	%	99
CC(=O)NC1CCC(=O)CC1	%	98
Cc1cc(N)no1	%	104
Nc1cccc(F)n1	%	91
Cc1ccc(C)c(S(=O)(=O)O)c1	%	94
Cc1cc(N)on1	%	97

Using the record for Cc1cc(Cl)nc(N)n1 , state its measured remaining activity at 2500 µM.
79

Using the record for OCCc1ccccc1C(F)(F)F , state its measured remaining activity at 2500 µM.
100

Using the record for COc1ccc2c(c1)C(=O)CCC2 , state its measured remaining activity at 2500 µM.
100

Using the record for NOCc1ccccc1 , state its measured remaining activity at 2500 µM.
94

Using the record for N#Cc1cccnc1N , state its measured remaining activity at 2500 µM.
99

Using the record for N#Cc1ccccc1Br , state its measured remaining activity at 2500 µM.
99

Using the record for O=c1[nH][nH]c2ccccc12 , state its measured remaining activity at 2500 µM.
89

Using the record for N#Cc1ccccn1 , state its measured remaining activity at 2500 µM.
98

Using the record for Cc1cc(C)[nH]n1 , state its measured remaining activity at 2500 µM.
100

Using the record for CC(=O)Nc1cccc(C)c1 , state its measured remaining activity at 2500 µM.
100

Using the record for NC(=O)c1ccccc1N , state its measured remaining activity at 2500 µM.
98

Using the record for NC(=O)c1cccnc1 , state its measured remaining activity at 2500 µM.
100

Source of measurements: paper PMC9718554
